TEST DETAILS: Cytotoxicity
Assay type: cell-based
APPLIED CONDITIONS: red blood cell suspension (4% RBC from defibrinated blood), pH 7
ENDPOINT: hemolysis at 2 h, 400 μg/mL (%)
Numbers only, in %.

Would you please look over these solved cases?
# COMPOUND, NUMBER
data = [
    ("CC(C)=CCC/C(C)=C/CO [GR, Geraniol]", 3.36),
    ("C=CCc1ccc(O)c(OC)c1 [EL, Eugenol]", 4.26),
    ("CC(C)=CCCC(C)=CC=O (mixture of isomers) [CT, Citral]", 4.51),
]

Q: Can you look up the measured hemolysis at 2 h, 400 μg/mL of O=C/C=C/c1ccccc1 [CD, Cinnamaldehyde] for me?
Ans: 4.4

----------
TEST DETAILS: Cytotoxicity
Assay type: cell-based
APPLIED CONDITIONS: red blood cell suspension (4% RBC from defibrinated blood), pH 7
Field: hemolysis at 2 h, 100 μg/mL. Provide a value for each of the molecules that follow.
Numbers only, in %.

# MOLECULE, hemolysis at 2 h, 100 μg/mL / %
measured = [
    ("C=CCc1ccc(O)c(OC)c1", 3.02),
    ("CC(C)=CCCC(C)=CC=O (mixture of isomers)", 3.8),
    ("O=C/C=C/c1ccccc1", 3.39),
]

// switching to the query molecule
Q: Can you look up the measured hemolysis at 2 h, 100 μg/mL of CC(C)=CCC/C(C)=C/CO for me?
Ans: 2.31

----------
Test system: C. neoformans (clinical isolate CN)
TEST DETAILS: Broth microdilution MIC/MFC, clinical isolate CN
Type: cell-based
APPLIED CONDITIONS: Cryptococcus neoformans, 24 h
ENDPOINT: MIC (µg/mL)
Numbers only, in µg/mL.

# COMPOUND, MIC / µg/mL
data = [
    ("O=C/C=C/c1ccccc1 [CD, Cinnamaldehyde]", 100),
    ("CC(C)=CCCC(C)=CC=O (mixture of isomers) [CT, Citral]", 800),
    ("C=CCc1ccc(O)c(OC)c1 [EL, Eugenol]", 200),
]

Q: Can you look up the measured MIC of CC(C)=CCC/C(C)=C/CO [GR, Geraniol] for me?
Ans: 400

----------
Test system: C. neoformans MTCC4424
TEST DETAILS: Broth microdilution MIC/MFC, MTCC4424
Format: cell-based
APPLIED CONDITIONS: Cryptococcus neoformans, MTCC4424, 24 h
Field: MIC. Provide a value for each of the compounds that follow.

Consider the following items and state reported MIC for each.
1. C=CCc1ccc(O)c(OC)c1 [EL, Eugenol]
2. CC(C)=CCC/C(C)=C/CO [GR, Geraniol]
3. O=C/C=C/c1ccccc1 [CD, Cinnamaldehyde]
4. CC(C)=CCCC(C)=CC=O (mixture of isomers) [CT, Citral]

Ans:
200 mg/L
800 mg/L
100 mg/L
1600 mg/L

----------
TEST DETAILS: Cytotoxicity
Assay type: cell-based
APPLIED CONDITIONS: red blood cell suspension (4% RBC from defibrinated blood), pH 7
Field: hemolysis at 2 h, 200 μg/mL. Provide a value for each of the compounds that follow.
Give bare numbers, in %.

# COMPOUND, NUMBER
data = [
    ("O=C/C=C/c1ccccc1 [CD, Cinnamaldehyde]", 3.96),
]

Consider the following items and state reported hemolysis at 2 h, 200 μg/mL for each.
1. C=CCc1ccc(O)c(OC)c1 [EL, Eugenol]
2. CC(C)=CCCC(C)=CC=O (mixture of isomers) [CT, Citral]
3. CC(C)=CCC/C(C)=C/CO [GR, Geraniol]

Ans:
3.72
4.29
2.87

----------
TEST DETAILS: Cytotoxicity
Assay type: cell-based
APPLIED CONDITIONS: red blood cell suspension (4% RBC from defibrinated blood), pH 7
ENDPOINT: hemolysis at 2 h, 800 μg/mL (%)
One number for each entry, in %.

Would you please look over these solved cases?
# COMPOUND, hemolysis at 2 h, 800 μg/mL, %
measured = [
    ("O=C/C=C/c1ccccc1", 5.06),
    ("C=CCc1ccc(O)c(OC)c1", 4.78),
    ("CC(C)=CCCC(C)=CC=O (mixture of isomers)", 5.98),
]

// switching to the query compound
Q: Can you look up the measured hemolysis at 2 h, 800 μg/mL of CC(C)=CCC/C(C)=C/CO for me?
Ans: 3.85

----------
TEST DETAILS: Cytotoxicity
Assay type: cell-based
APPLIED CONDITIONS: red blood cell suspension (4% RBC from defibrinated blood), pH 7
ENDPOINT: hemolysis at 2 h, 25 μg/mL (%)
One number for each entry, in %.

Would you please look over these solved cases?
# COMPOUND, hemolysis at 2 h, 25 μg/mL [%]
records = [
    ("C=CCc1ccc(O)c(OC)c1 [EL, Eugenol]", 1.65),
    ("CC(C)=CCC/C(C)=C/CO [GR, Geraniol]", 1.33),
    ("O=C/C=C/c1ccccc1 [CD, Cinnamaldehyde]", 1.84),
]

Q: Can you look up the measured hemolysis at 2 h, 25 μg/mL of CC(C)=CCCC(C)=CC=O (mixture of isomers) [CT, Citral] for me?
Ans: 1.78

----------
Field: hemolysis at 2 h, 1600 μg/mL. Provide a value for each of the compounds that follow.
TEST DETAILS: Cytotoxicity
Format: cell-based
APPLIED CONDITIONS: red blood cell suspension (4% RBC from defibrinated blood), pH 7
Give bare numbers, in %.

Would you please look over these solved cases?
# COMPOUND, DISPLAY UNIT, hemolysis at 2 h, 1600 μg/mL
data = [
    ("O=C/C=C/c1ccccc1", "%", 6.22),
    ("CC(C)=CCCC(C)=CC=O (mixture of isomers)", "%", 6.96),
    ("CC(C)=CCC/C(C)=C/CO", "%", 4.74),
]

// switching to the query compound
Q: Can you look up the measured hemolysis at 2 h, 1600 μg/mL of C=CCc1ccc(O)c(OC)c1 for me?
Ans: 5.6

----------
TEST DETAILS: Cytotoxicity
Assay type: cell-based
APPLIED CONDITIONS: red blood cell suspension (4% RBC from defibrinated blood), pH 7
Field: hemolysis at 2 h, 50 μg/mL. Provide a value for each of the compounds that follow.
Give bare numbers, in %.

Consider the following items and state reported hemolysis at 2 h, 50 μg/mL for each.
1. O=C/C=C/c1ccccc1 [CD, Cinnamaldehyde]
2. CC(C)=CCCC(C)=CC=O (mixture of isomers) [CT, Citral]
3. CC(C)=CCC/C(C)=C/CO [GR, Geraniol]
4. C=CCc1ccc(O)c(OC)c1 [EL, Eugenol]

Ans:
1: 2.87; 2: 2.86; 3: 2.16; 4: 1.98

----------
TEST DETAILS: Cytotoxicity
Assay type: cell-based
APPLIED CONDITIONS: red blood cell suspension (4% RBC from defibrinated blood), pH 7
ENDPOINT: hemolysis at 2 h, 3200 μg/mL
Put down the number, then write its unit next to it.

Would you please look over these solved cases?
# COMPOUND, hemolysis at 2 h, 3200 μg/mL
data = [
    ("CC(C)=CCCC(C)=CC=O (mixture of isomers) [CT, Citral]", "17.6%"),
    ("C=CCc1ccc(O)c(OC)c1 [EL, Eugenol]", "19%"),
]

Consider the following items and state reported hemolysis at 2 h, 3200 μg/mL for each.
1. CC(C)=CCC/C(C)=C/CO [GR, Geraniol]
2. O=C/C=C/c1ccccc1 [CD, Cinnamaldehyde]

Ans:
1: 14.3%; 2: 18.1%

----------
Field: Diameter of zone of inhibition. Provide a value for each of the compounds that follow.
System: C. neoformans MTCC4424
TEST DETAILS: Disc diffusion assay, MTCC4424
Format: cell-based, Cryptococcus neoformans
APPLIED CONDITIONS: 10 μL of essential oil or active compound per disc; 37°C, 48 h; mean±SD
Give bare numbers, in mm.

Would you please look over these solved cases?
# COMPOUND, TARGET UNDER TEST, DISPLAY UNIT, Diameter of zone of inhibition
rows = [
    ("CC(C)=CCCC(C)=CC=O (mixture of isomers) [CT, Citral]", "C. neoformans MTCC4424", "mm", 22.66),
    ("C=CCc1ccc(O)c(OC)c1 [EL, Eugenol]", "C. neoformans MTCC4424", "mm", 40.33),
    ("O=C/C=C/c1ccccc1 [CD, Cinnamaldehyde]", "C. neoformans MTCC4424", "mm", 45.66),
]

// switching to the query compound
Q: Can you look up the measured Diameter of zone of inhibition of CC(C)=CCC/C(C)=C/CO [GR, Geraniol] for me?
Ans: 19.33
